- Test system: S. epidermidis
- assay_comment: MIC testing by broth dilution, S. epidermidis plank
- Type: cell-based, Staphylococcus epidermidis
- run_parameters: broth dilution, Trypticase Soy, 24 h; read-out: MIC (μM) S. epidermidis Plank
metric_name: MIC (µM)
Write the value in µM as a bare number.

Cl.NCCCOc1ccccc1C(=O)Nc1ncc([N+](=O)[O-])s1 [VPC162102HCl] :: 44.6

Challenge: Endpoint output: MIC of O=C(Nc1ncc([N+](=O)[O-])s1)c1cc(F)c(F)c(F)c1 . Value?
Response given: 66.0

Challenge: Endpoint output: MIC of O=C(Nc1nc(Cl)c([N+](=O)[O-])s1)c1ccccc1 . Value?
Response given: 35.2

====

We begin with a simple list: items and their reported MIC.
- System: C. jejuni
- assay_comment: MIC testing by broth dilution, C. jejuni
- Type: cell-based, Campylobacter jejuni
- run_parameters: broth dilution, Brain Heart Infusion, 24 h; read-out: MIC (μM) C. jejuni
Write the value in µM as a bare number.

In the examples that follow, each entry is paired with its recorded MIC.
O=C(Nc1ncc([N+](=O)[O-])s1)c1cccc([N+](=O)[O-])c1O :: 103.1
CCCCCCCCCC(=O)Nc1ncc([N+](=O)[O-])s1 :: 3.9
O=C(C=Cc1ccccc1)Nc1ncc([N+](=O)[O-])s1 :: 2.7
O=C(Nc1ncc([N+](=O)[O-])s1)c1ccc([N+](=O)[O-])cc1 :: 13.6
O=C(Nc1nc(Cl)c([N+](=O)[O-])s1)c1cccc(C(F)(F)F)c1 :: 34.1

Challenge: Endpoint output: MIC of NCCCOc1ccccc1C(=O)Nc1ncc([N+](=O)[O-])s1.O=C(O)C(F)(F)F [VPC162102TFA] . Value?
Response given: 13.8

Challenge: Endpoint output: MIC of O=C(Nc1ncc([N+](=O)[O-])s1)c1cc(C(F)(F)F)cc(C(F)(F)F)c1 . Value?
Response given: 41.5
